Source of measurements: PubChem BioAssay AID2060905

Tested on: 282377-053-R-J1-PDC complex spheroid viability
Experiment: Anticancer human tumor 282377-053-R-J1-PDC patient-derived colon adenocarcinoma cell line growth inhibition [RAS]
Conditions: compound 0.316 µM; active compounds read low
Let's look at some compounds and their measured viability, T/C.

CC(Nc1ccc2c(c1)OCCn1cc(N3C(=O)OCC3C(F)F)nc1-2)C(N)=O (stereo not drawn) | 85.7% [middle of 4 runs]
CC(=O)OC12COC1CC(O)C1(C)C(=O)C(O)C3=C(C)C(OC(=O)C(O)C(NC(=O)OC(C)(C)C)c4ccccc4)CC(O)(C(OC(=O)c4ccccc4)C21)C3(C)C (stereo not drawn) | 37.9% [middle of 4 runs]
C=CC(=O)N1CCN(c2nc(OCC3CCCN3C)nc3c(F)c(-c4nc(N)cc(C)c4C(F)(F)F)c(Cl)cc23)C(C)C1 (stereo not drawn) | 100% [middle of 12 runs]
C#Cc1c(F)ccc2cc(O)cc(-c3ncc4c(N5CC6CCC(C5)N6)nc(OCC56CCCN5CC(F)C6)nc4c3F)c12 (stereo not drawn) | 102% [middle of 8 runs]
O=C(c1ccc(F)c(F)c1Nc1ccc(I)cc1F)N1CC(O)([C@@H]2CCCCN2)C1 | 28.1% [middle of 4 runs]
Cc1nc(N2CCC3(CC2)COC(C)C3N)c(CO)nc1Sc1ccnc(N)c1Cl (stereo not drawn) | 94.9% [middle of 4 runs]
C[C@@H](NC(=O)c1ncnc(N)c1Cl)c1ncc(C(=O)Nc2cc(C(F)(F)F)c(Cl)cn2)s1 | 92.8% [middle of 4 runs]

API: the following record is the query input.
Query: Query viability, T/C for NC1c2ccccc2OC12CCN(c1cnc3c(N4CCCc5ncccc54)n[nH]c3n1)CC2 (stereo not drawn)
Response: 101% [middle of 4 runs]

###

Let's look at some molecules and their measured viability, T/C.
Test system: 282377-053-R-J1-PDC complex spheroid viability
Test: Anticancer human tumor 282377-053-R-J1-PDC cell line growth inhibition [RAS];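 note: spheroids exposed to agents for seven days before readout; luminescence viability as percent of DMSO vehicle control wells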
Settings: second compound 0.3 µM; first compound 0.0316 µM; active compounds read low
Return type: number; implicit unit %.

Consider the reported viability, T/C for these molecules:
CCC(CC)c1cc(NC2CCC(N)C2)n2nccc2n1 (stereo not drawn) + CCn1c(-c2cc(N3CCN(C)CC3)cnc2C(C)OC)c2c3cc(ccc31)-c1csc(n1)CC(NC(=O)C1CC1C)C(=O)N1CCCC(N1)C(=O)OCC(C)(C)C2 | 94.7
O=C(c1ccc(F)c(F)c1Nc1ccc(I)cc1F)N1CC(O)([C@@H]2CCCCN2)C1 + CCn1c(-c2cccnc2C(C)OC)c2c3cc(ccc31)N1CCOC(CC(NC(=O)C(C(C)C)N(C)C(=O)C3(F)CCN(C(=O)C#CC(C)(C)N(C)C)CC3)C(=O)N3CCCC(N3)C(=O)OCC(C)(C)C2)C1 | 53.7

API: the following record is the query input.
Query: Query viability, T/C for C=CC(=O)N1CCN(c2nc(OCC3CCCN3C)nc3c(F)c(-c4nc(N)cc(C)c4C(F)(F)F)c(Cl)cc23)C(C)C1 (stereo not drawn) + CCn1c(-c2cccnc2C(C)OC)c2c3cc(ccc31)N1CCOC(CC(NC(=O)C(C(C)C)N(C)C(=O)C3(F)CCN(C(=O)C#CC(C)(C)N(C)C)CC3)C(=O)N3CCCC(N3)C(=O)OCC(C)(C)C2)C1
Response: 97.5
